Data origin: PubChem BioAssay AID1845205

Test system: MPNST multicellular tumor spheroids, viability % test/control
Assay: Anticancer human tumor MPNST cell line growth inhibition;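 also: luminescence signal used as surrogate for viable cell amount; spheroids exposed to agents for seven days after three days of growth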
Details: second compound 0.3 µM; first compound 10 µM; stronger effect = lower value
value-type: viability, T/C

{"compound": "[2H]c1nc(C)nc([2H])c1-c1cc(NC[C@@H](C)c2cccc3c(C(=O)NC)ccnc23)ncn1 + CC[C@@]1(O)C(=O)OCc2c1cc1n(c2=O)Cc2cc3c(CN(C)C)c(O)ccc3nc2-1", "assay-target": "MPNST multicellular tumor spheroids, viability % test/control", "viability, T/C": "25.9%"}

Switching to the query record.
Lookup result for COc1ccc([C@@H](O)c2cc(-c3ncnc4cc(N5CCOCC5)ccc34)c(F)cc2Cl)nn1 + CC[C@@]1(O)C(=O)OCc2c1cc1n(c2=O)Cc2cc3c(CN(C)C)c(O)ccc3nc2-1 ; measured viability, T/C: 10.3%

* * *

Tested on: MPNST multicellular tumor spheroids, viability % test/control
Test: Anticancer human tumor MPNST cell line growth inhibition;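 also: luminescence signal used as surrogate for viable cell amount; spheroids exposed to agents for seven days after three days of growth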
Settings: second compound 94.9 pM; first compound 0.949 µM; stronger effect = lower value
Method: Multicellular complex tumor spheroid response to DNA repair inhibitors in combination with DNA-damaging drugs This study explores the anticancer activities of DNA-damaging drugs and inhibitors of DNA damage repair, both as single agents and in combinations. […] Twenty-six patient-derived or established malignant cell lines were evaluated representing sarcoma, melanoma, small cell lung cancer (SCLC), non-small cell lung cancer (NSCLC), as well as bladder, ovarian and pancreatic cancers. […]
value-type: viability, T/C (%)
Numeric only. Scale: %

See these solved cases before continuing.
{"molecule": "CNCc1ccc(-c2cc(-c3nc(-c4ccc(S(=O)(=O)C(C)C)cc4)cnc3N)on2)cc1 + COc1cc2c(cc1O)CCNC21CSC2c3c(OC(C)=O)c(C)c4c(c3C(COC1=O)N1C(O)C3Cc5cc(C)c(OC)c(O)c5C(C21)N3C)OCO4", "value-type": "viability, T/C", "recorded-measurement": 49.7}
{"molecule": "Cc1sc2c(c1C)C(c1ccc(Cl)cc1)=NC(CC(=O)Nc1ccc(O)cc1)c1nnc(C)n1-2 (centres undefined) + COc1cc2c(cc1O)CCNC21CSC2c3c(OC(C)=O)c(C)c4c(c3C(COC1=O)N1C(O)C3Cc5cc(C)c(OC)c(O)c5C(C21)N3C)OCO4", "value-type": "viability, T/C", "recorded-measurement": 27.9}
{"molecule": "O=C(c1cc(Cc2n[nH]c(=O)c3ccccc23)ccc1F)N1CCN(C(=O)C2CC2)CC1 + COc1cc2c(cc1O)CCNC21CSC2c3c(OC(C)=O)c(C)c4c(c3C(COC1=O)N1C(O)C3Cc5cc(C)c(OC)c(O)c5C(C21)N3C)OCO4", "value-type": "viability, T/C", "recorded-measurement": 70}

Let us move to another entry and its viability, T/C.
Form field viability, T/C, entry Cn1ncnc1[C@H]1c2n[nH]c(=O)c3cc(F)cc(c23)N[C@@H]1c1ccc(F)cc1 + COc1cc2c(cc1O)CCNC21CSC2c3c(OC(C)=O)c(C)c4c(c3C(COC1=O)N1C(O)C3Cc5cc(C)c(OC)c(O)c5C(C21)N3C)OCO4 : 45.3

* * *

System: MPNST multicellular tumor spheroids, viability % test/control
Assay: Anticancer human tumor MPNST cell line growth inhibition;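 also: luminescence signal used as surrogate for viable cell amount; spheroids exposed to agents for seven days after three days of growth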
Conditions: second compound 0.000949 µM; first compound 0.0316 µM; stronger effect = lower value
Recorded viability, T/C for the following compounds

Known viability, T/C results, listed for orientation:
{"compound": "Cc1cc(C)c(CNC(=O)c2cc(-c3ccc(CN4CCOCC4)cc3)cc3c2cnn3C2CCCC2)c(=O)[nH]1 + COc1cc2c(cc1O)CCNC21CSC2c3c(OC(C)=O)c(C)c4c(c3C(COC1=O)N1C(O)C3Cc5cc(C)c(OC)c(O)c5C(C21)N3C)OCO4", "recorded-measurement": "41.3%"}
{"compound": "[2H]c1nc(C)nc([2H])c1-c1cc(NC[C@@H](C)c2cccc3c(C(=O)NC)ccnc23)ncn1 + COc1cc2c(cc1O)CCNC21CSC2c3c(OC(C)=O)c(C)c4c(c3C(COC1=O)N1C(O)C3Cc5cc(C)c(OC)c(O)c5C(C21)N3C)OCO4", "recorded-measurement": "48.4%"}
{"compound": "CC(C)n1c(=O)n(C)c2cnc3cc(F)c(-c4ccc(OCCCN5CCCCC5)nc4)cc3c21 + COc1cc2c(cc1O)CCNC21CSC2c3c(OC(C)=O)c(C)c4c(c3C(COC1=O)N1C(O)C3Cc5cc(C)c(OC)c(O)c5C(C21)N3C)OCO4", "recorded-measurement": "47.2%"}
{"compound": "CC1COCCN1c1cc(-c2ccnn2C)c2ccnc(-c3ccn[nH]3)c2n1 (stereo unspecified) + COc1cc2c(cc1O)CCNC21CSC2c3c(OC(C)=O)c(C)c4c(c3C(COC1=O)N1C(O)C3Cc5cc(C)c(OC)c(O)c5C(C21)N3C)OCO4", "recorded-measurement": "45.4%"}
{"compound": "COc1cc(C)[nH]c(=O)c1CN1CCc2c(Cl)cc(C(OC)C3COC3)c(Cl)c2C1=O (stereo unspecified) + COc1cc2c(cc1O)CCNC21CSC2c3c(OC(C)=O)c(C)c4c(c3C(COC1=O)N1C(O)C3Cc5cc(C)c(OC)c(O)c5C(C21)N3C)OCO4", "recorded-measurement": "47.6%"}

Now look at this one.
Value (viability, T/C, MPNST multicellular tumor spheroids, viability % test/control) for record COc1ccc([C@@H](O)c2cc(-c3ncnc4cc(N5CCOCC5)ccc34)c(F)cc2Cl)nn1 + COc1cc2c(cc1O)CCNC21CSC2c3c(OC(C)=O)c(C)c4c(c3C(COC1=O)N1C(O)C3Cc5cc(C)c(OC)c(O)c5C(C21)N3C)OCO4 = 84.4%
